MIC, Escherichia coli: measured values
Could you give me the number in µg/mL? Just the number is fine.

Answered cases to consult:
compound | MIC [µg/mL]
Cc1oc(-c2ccc(F)cc2F)nc1N1N=C(c2ccccc2)CC1N1CCc2ccccc2C1 (stereo not drawn) | 12.5
C=Cc1ccccc1-c1nc(N2N=C(c3ccccc3C(F)(F)F)CC2N2CCc3ccc(OC)cc3C2)c(C)o1 (stereo not drawn) | 50
C=Cc1ccccc1-c1nc(N2N=C(c3ccccc3F)CC2N2CCc3ccc(OC)cc3C2)c(C)o1 (stereo not drawn) | 50
Cc1oc(-c2ccc(F)cc2F)nc1N1N=C(c2ccccc2F)CC1N1CCc2ccccc2C1 (stereo not drawn) | 25
C=Cc1ccccc1-c1nc(N2N=C(c3ccc(Cl)cc3Cl)CC2N2CCc3ccc(OC)cc3C2)c(C)o1 (stereo not drawn) | 50

Then this compound:
What the record says about C=Cc1ccccc1-c1nc(N2N=C(c3ccccc3F)CC2N2CCc3ccccc3C2)c(C)o1 (stereo not drawn) [TETRAPHENYLPHOSPHONIUM_CHLORIDE] : MIC is 50
